Every entry's value here was drawn from the supplement of paper PMC9135407.

- System: primary human hepatic stellate cells (donor 1)
- Experimental Details: scaled lipid accumulation score (0 = DMSO-like, 1 = nortriptyline-like); higher = stronger HSC inactivation (lipid re-accumulation), active = hit call of the paper
- Setup Conditions: library stock concentration: 9.6 mM; 48 h
Counter-ions that a name gives are not always drawn. Screen size: about 5,800 compounds; about 620 (11%) showed activity. The list comes from a sample in which actives are over-represented; it also holds close analogues and randomly drawn compounds.

Molecule	scaled lipid accumulation score
CC(C(O)c1ccc(O)cc1)N1CCC(Cc2ccccc2)CC1 (centres undefined)	0.096 (inactive)
CNCCc1ccccn1 [Betahistine hydrochloride]	≤ 0 (inactive)
COc1cc2nc(N3CCN(C(=O)C4CCCO4)CC3)nc(N)c2cc1OC (centres undefined)	≤ 0 (inactive)
CC(C)C[C@H](NC(=O)[C@@H](COC(C)(C)C)NC(=O)[C@H](Cc1ccc(O)cc1)NC(=O)[C@H](CO)NC(=O)[C@H](Cc1c[nH]c2ccccc12)NC(=O)[C@H](Cc1cnc[nH]1)NC(=O)[C@@H]1CCC(=O)N1)C(=O)N[C@@H](CCCNC(=N)N)C(=O)N1CCC[C@H]1C(=O)NNC(N)=O	0.046 (inactive)

----------
Measured scaled lipid accumulation score of individual entries
- Test system: primary human hepatic stellate cells (donor 1)
- Experimental Details: scaled lipid accumulation score (0 = DMSO-like, 1 = nortriptyline-like); higher = stronger HSC inactivation (lipid re-accumulation), active = hit call of the paper
- Setup Conditions: library stock concentration: 400 uM; 48 h
About 620 (11%) of roughly 5,800 compounds showed activity. This excerpt belongs to a sample that is enriched for actives.
Measured Endpoint: scaled lipid accumulation score

>>> print(df.to_string())
                                    molecule  observed_measurement
 0  COc1ccc(-c2cc3nccn3c(Nc3ncccc3C(N)=O)n2)cc1OC   ≤ -0.009 (inactive)
 1  Cc1nc2ccc(-n3ncc(C(=O)c4cc5ccccc5[nH]4)c3N)cc2[nH]1   ≤ -0.001 (inactive)
 2  CN1CCC(CNc2ccc3ncc(-c4cccc(OC(F)(F)F)c4)n3n2)CC1       0.23 (inactive)
 3  COc1cccc2cc(-c3nc([C@H]4CC[C@H](C(=O)O)CC4)n4ncnc(N)c34)[nH]c12      0.061 (inactive)
 4  Cc1cc(Nc2nc(N[C@@H](C)c3ccc(F)cc3)c(C#N)cc2F)n[nH]1   ≤ -0.005 (inactive)
 5  O=S(=O)(NCCNC/C=C/c1ccc(Br)cc1)c1cccc2cnccc12        ≤ 0 (inactive)
 6  Cn1cc(-c2ccc(F)c(C(F)(F)F)c2)nc1C1CCN(c2ncnc3[nH]ncc23)CC1      0.015 (inactive)
 7  Cc1cc(C(=O)Nc2cc(Nc3ccc4c(/C=C/c5ccccn5)n[nH]c4c3)ccc2F)n(C)n1      0.035 (inactive)
 8  CN1CCN(Cc2ccc(-c3cnc4[nH]cc(-c5ccc6[nH]ccc6c5)c4c3)cc2)CC1      0.001 (inactive)
 9  COc1cc2ncnc(Nc3ccc(F)c(Cl)c3)c2cc1NC(=O)/C=C/CN1CCCCC1      0.274 (inactive)
10  CNC(=O)c1ccccc1Sc1ccc2c(/C=C/c3ccccn3)n[nH]c2c1       0.07 (inactive)
11  COc1cc2ncnc(-n3nc(-c4ccccn4)nc3N)c2cc1OC      0.052 (inactive)
12  S=C(NCc1ccc2c(c1)OCO2)N1CCN(c2ncnc3c2oc2ccccc23)CC1 [Amuvatinib (MP-470) (0.4 mM)]      0.042 (inactive)
13  O=c1[nH]c(C2CCCN2)nc2c1oc1ccc(Cl)cc12 (stereo not given)      0.055 (inactive)
14   O=C1Nc2ccccc2/C1=C\c1c(Cl)[nH]c2ccccc12   ≤ -0.001 (inactive)
15  O=C(c1ccc(/C=C/c2n[nH]c3ccccc23)cc1)N1CCNCC1   ≤ -0.016 (inactive)
16  S=C(NCc1ccc2c(c1)OCO2)N1CCN(c2ncnc3c2oc2ccccc23)CC1   ≤ -0.009 (inactive)
17  Cc1ccc(-c2ccc3c(ccc4sc5c(c43)NC[C@@H](C)NC5=O)n2)cn1   ≤ -0.001 (inactive)
18  C[C@@H](Oc1cc(-c2cnn(C3CCNCC3)c2)cnc1N)c1c(Cl)ccc(F)c1Cl      0.145 (inactive)
19  CC(C)NC[C@@H](C(=O)N1CCN(c2ncnc3c2[C@H](C)C[C@H]3O)CC1)c1ccc(Cl)cc1   ≤ -0.016 (inactive)

----------
- Tested on: primary human hepatic stellate cells (donor 1)
- Experimental Details: scaled lipid accumulation score (0 = DMSO-like, 1 = nortriptyline-like); higher = stronger HSC inactivation (lipid re-accumulation), active = hit call of the paper
- Setup Conditions: library stock concentration: 3.33 mM; 48 h
Structures can show the parent of a compound that is named as a salt. Among all 5,800 compounds or so, about 620 (11%) showed activity.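 How the source made its calls: active = score above a cut-off or among the top three wells of a plate; in these data no inactive exceeds 0.85.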 Only a selection was taken, and actives are over-represented in it overall.
Classes used: yes (1) = active, no (0) = inactive

In [3]: df
Out[3]:
                                    compound  class_name
 0  CS(=O)(=O)c1ccc(-c2cnc(N)c(C(=O)Nc3ccccc3)n2)cc1      no (0)
 1  CC(NC(=O)C(O)c1cc(F)cc(F)c1)C(=O)NC1C(=O)N(C)c2ccccc2-c2ccccc21 (stereo unspecified)      no (0)
 2  CCCC(=O)Oc1ccc2[nH]c(C(=O)c3cc4ccccc4[nH]3)cc2c1      no (0)
 3  CNc1nc(-c2ccc3c(N)n[nH]c3c2)cc(N2C[C@@H](C(=O)NC3CCCCC3)CC[C@H]2C)n1      no (0)
 4  OCCOCCN1CCN(C2=Nc3ccccc3Sc3ccccc32)CC1 [Quetiapine Fumarate]      no (0)
 5  CCCC(=O)OCOC(=O)C1=C(C)NC(C)=C(C(=O)OC)C1c1cccc(Cl)c1Cl (stereo unspecified) [Clevidipine Butyrate]      no (0)
 6  CC(C)Oc1ccc(C(=O)N[C@H](CNC(=O)CN(C)C)Cc2ccc(-c3cn4cccc([C@H](C)O)c4n3)cc2)cc1Cl      no (0)
 7  CN1C(=O)C(c2c[nH]c3ccccc23)=C(c2c[nH]c3ccccc23)C1=O [Bisindolylmaleimide V]      no (0)
 8  COc1ccc2cc1Oc1ccc(cc1)C[C@@H]1c3c(cc4c(c3Oc3cc5c(cc3OC)CCN(C)[C@H]5C2)OCO4)CCN1C     yes (1)
 9  O=C(Nc1c[nH]nc1-c1nc2ccc(CN3CCOCC3)cc2[nH]1)NC1CC1      no (0)
10  O=C(CCCN1CCC(O)(c2ccc(Cl)cc2)CC1)c1ccc(F)cc1      no (0)
11  OCC(O)CCO/N=C1\C(c2c(O)[nH]c3ccccc23)=Nc2ccccc21 (stereo unspecified)      no (0)
12  Brc1ccc(C2CN3CCSC3=N2)cc1 (single isomer, unassigned; (-)) [(-)-p-Bromotetramisole Oxalate]      no (0)
13  Cc1ccc(C(=O)Nc2cccc(C(F)(F)F)c2)cc1Nc1nc(-c2cccnc2)nc2c1cnn2C     yes (1)
14  CCOC(=O)C1=C(COCCN)NC(C)=C(C(=O)OC)C1c1ccccc1Cl (stereo unspecified)      no (0)
15  COc1cc2c(c(OC)c1OC)-c1c(cc3c(c1OC)OCO3)CC(C)C(C)C2 (stereo unspecified) [Schisandrin B (Sch B)]      no (0)

----------
- Test system: primary human hepatic stellate cells (donor 1)
- Experimental Details: scaled lipid accumulation score (0 = DMSO-like, 1 = nortriptyline-like); higher = stronger HSC inactivation (lipid re-accumulation), active = hit call of the paper
- Setup Conditions: library stock concentration: 3.33 mM; 48 h
Among all 5,800 compounds or so, about 620 (11%) showed activity.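 The calls were made as follows: active = score above a cut-off or among the top three wells of a plate; in these data no inactive exceeds 0.85.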 Only a selection was taken, and actives are over-represented in it overall.
Classes used: active, inactive

                                   compound  class_name
0              CC(C)CC(N)=O [Isovaleramide]    inactive
1  COc1ccc(CNC(=O)Nc2ncc([N+](=O)[O-])s2)cc1 [GSK-3b Inhibitor VIII]    inactive
2  CN1CCN(C2CCN(C(=O)Nc3cc(Oc4ccc(NC(=O)C5(C(=O)Nc6ccc(F)cc6)CC5)c(F)c4)ccn3)CC2)CC1 [Golvatinib (E7050)]      active
3  COc1ccc(CNC(=O)Nc2ncc([N+](=O)[O-])s2)cc1    inactive
4  CC1=C(C(=O)Nc2cc3cn[nH]c3cc2F)C(c2ccc(C(F)(F)F)cc2)CC(=O)N1 (stereo not drawn)    inactive
5  COc1cc(Nc2ncc(F)c(Nc3ccc4c(n3)NC(=O)C(C)(C)O4)n2)cc(OC)c1OC    inactive
6  COc1cc(Nc2ncc(F)c(Nc3ccc4c(n3)NC(=O)C(C)(C)O4)n2)cc(OC)c1OC [R406 (free base)]      active
7  COc1cc(Nc2ncc(F)c(Nc3ccc4c(n3)N(COP(=O)(O)O)C(=O)C(C)(C)O4)n2)cc(OC)c1OC [Fostamatinib (R788)]    inactive
